- EXPERIMENT: Caco-2 cell permeability assay
- Assay type: in vitro ADME, human
- TEST_SETTINGS: human, Caco-2, apical to basolateral, 60 min, 37° C.
OBSERVABLE: Papp A→B at 60 min, 10 μM

COMPOUND	REPORTED_RESULT
CC[C@@H](NC(=O)N1C(=O)[C@H](Cc2ccnc(N)c2)[C@H]1C(=O)N(C)c1cscn1)c1cccc(Cl)c1 [Compound 1-17]	11 to 30 ×10⁻⁶ cm/s
CC(C)[C@@H](NC(=O)N1C(=O)[C@H](Cc2ccnc(N)c2)[C@H]1C(=O)N(C)c1ccn(C)n1)C1CCCCC1 [Compound 1-57]	11 to 30 ×10⁻⁶ cm/s
CC[C@@H](NC(=O)N1C(=O)[C@H](Cc2ccnc(N)c2)[C@H]1C(=O)N(C)c1cnn(C)c1)c1cccc(Cl)c1 [Compound 1-11]	< 10 ×10⁻⁶ cm/s
CC[C@@H](NC(=O)N1C(=O)[C@H](Cc2ccnc(N)c2)[C@H]1C(=O)N(C)c1cccs1)c1ccccc1 [Compound 1-10]	11 to 30 ×10⁻⁶ cm/s
CC[C@@H](NC(=O)N1C(=O)[C@H](Cc2cc(C)nc(N)c2)[C@H]1C(=O)N(C)c1ccnn1C)c1ccc(F)c(F)c1 [Compound 1-158]	< 10 ×10⁻⁶ cm/s

API: the following record is the query input.
**Query** Return value of Papp A→B at 60 min, 10 μM for input CC[C@@H](NC(=O)N1C(=O)[C@H](Cc2ccnc(N)c2)[C@H]1C(=O)N(C)c1cscn1)c1ccccc1 [Compound 1-8] , no commentary.
**Result** < 10 ×10⁻⁶ cm/s

----------
- EXPERIMENTAL_TARGET: Thrombin (Homo sapiens (Human))
- EXPERIMENT: Dose response assay for protease inhibitors: thrombin
- Format: biochemical
- TEST_SETTINGS: selectivity, thrombin over Factor XIa
OBSERVABLE: Ratio: Thrombin/FXIa

MOLECULE	REPORTED_RESULT
CC[C@@H](NC(=O)N1C(=O)[C@H](Cc2cc(C)nc(N)c2)[C@H]1C(=O)N(C)c1ccnn1C)c1cccc(F)c1F [Compound 1-151]	I (“I” indicates > 500)
CC[C@@H](NC(=O)N1C(=O)[C@H](Cc2cc(C)nc(N)c2)[C@H]1C(=O)N(C)c1ccnn1C)c1cc(F)ccc1C [Compound 1-162]	I (“I” indicates > 500)

----------
- EXPERIMENT: Caco-2 cell permeability assay
- Format: in vitro ADME, human
- TEST_SETTINGS: human, Caco-2, basolateral to apical, 40 min, 37° C.
- Description: The following procedure was used to determine the ability of a test compound to cross Caco-2 cells (human intestinal epithelial cells derived from a colorectal adenocarcinoma). The cells were seeded at 1×10^5 cells/cm^2 in 96-well Multiscreen™ plates (Millipore). […] Samples are analyzed by HPLC-MS/MS using selected reaction monitoring. […] The apparent permeability coefficient (Papp) of the test compound (Equation 2) and its recovery (Equation 3) are calculated as follows: […]
Recorded Papp B→A at 40 min, 10 μM for the following compounds

COMPOUND	REPORTED_RESULT
CC[C@@H](NC(=O)N1C(=O)[C@H](Cc2ccnc(NC)c2)[C@H]1C(=O)N(C)c1nccn1C)c1cccc(Cl)c1 [Compound 1-41]	31 to 50 ×10⁻⁶ cm/s
CC[C@@H](NC(=O)N1C(=O)[C@H](Cc2cc(C)nc(N)c2)[C@H]1C(=O)N(C)c1nccn1C)c1cc(F)ccc1F [Compound 1-137]	11 to 30 ×10⁻⁶ cm/s

**Query** Return value of Papp B→A at 40 min, 10 μM for input CC[C@@H](NC(=O)N1C(=O)[C@H](Cc2ccnc(N)c2)[C@H]1C(=O)N(C)c1ccnn1C)c1ccccc1 [Compound 1-92] , no commentary.
**Result** 31 to 50 ×10⁻⁶ cm/s

----------
Recorded solubility at 24 h for the following compounds
- EXPERIMENT: Aqueous solubility in PBS by HPLC-UV/VIS
- Type: physicochemical
- TEST_SETTINGS: phosphate buffered saline, aqueous buffer, kinetic from dmso stock; PBS pH 7.4, 2% DMSO, 24 h at room temperature

COMPOUND	OBSERVABLE	REPORTED_RESULT
CC[C@@H](NC(=O)N1C(=O)[C@H](Cc2cc(C)nc(N)c2)[C@H]1C(=O)N(C)c1nccn1C)c1cccc(Cl)c1 [Compound 1-43]	solubility at 24 h	> 100 µM
CC(C)[C@@H](NC(=O)N1C(=O)[C@H](Cc2ccnc(N)c2)[C@H]1C(=O)N(C)c1ccn(C)n1)C1CCCCC1 [Compound 1-57]	solubility at 24 h	10 to 100 µM

**Query** Return value of solubility at 24 h for input C[C@@H](NC(=O)N1C(=O)[C@H](Cc2ccnc(N)c2)[C@H]1C(=O)N(C)c1ccn(C)n1)C1CCCCC1 [Compound 1-50] , no commentary.
**Result** > 100 µM

----------
- EXPERIMENTAL_TARGET: Thrombin (Homo sapiens (Human))
- EXPERIMENT: Dose response assay for protease inhibitors: thrombin
- Type: biochemical
- TEST_SETTINGS: selectivity, thrombin over Factor XIa
- Text: […]
OBSERVABLE: Ratio: Thrombin/FXIa

COMPOUND	REPORTED_RESULT
CC[C@@H](NC(=O)N1C(=O)[C@H](Cc2ccnc(N)c2)[C@H]1C(=O)N(C)c1cnn(C)c1)c1ccc(C)nc1 [Compound 1-18]	G (“G” indicates 1-100)
CC[C@@H](NC(=O)N1C(=O)[C@H](Cc2ccnc(N)c2)[C@H]1C(=O)N(C)c1cn(C)cn1)c1cccc(Cl)c1 [Compound 1-25]	G (“G” indicates 1-100)

----------
- EXPERIMENTAL_TARGET: Thrombin (Homo sapiens (Human))
- EXPERIMENT: Dose response assay for protease inhibitors: thrombin
- Type: biochemical
- TEST_SETTINGS: selectivity, thrombin over Factor XIa
OBSERVABLE: Ratio: Thrombin/FXIa

MOLECULE	REPORTED_RESULT
CC[C@@H](NC(=O)N1C(=O)[C@H](Cc2cc(C)nc(N)c2)[C@H]1C(=O)N(C)c1ccnn1C)C1CCCCC1 [Compound 1-67]	I (“I” indicates > 500)
CC[C@@H](NC(=O)N1C(=O)[C@H](Cc2cc(C)nc(NC)c2)[C@H]1C(=O)N(C)c1ccnn1C)C1CCCCC1 [Compound 1-62]	I (“I” indicates > 500)

----------
- EXPERIMENTAL_TARGET: Factor Xa (Homo sapiens (Human), UniProt P00742)
- Sequence (P00742 235-488): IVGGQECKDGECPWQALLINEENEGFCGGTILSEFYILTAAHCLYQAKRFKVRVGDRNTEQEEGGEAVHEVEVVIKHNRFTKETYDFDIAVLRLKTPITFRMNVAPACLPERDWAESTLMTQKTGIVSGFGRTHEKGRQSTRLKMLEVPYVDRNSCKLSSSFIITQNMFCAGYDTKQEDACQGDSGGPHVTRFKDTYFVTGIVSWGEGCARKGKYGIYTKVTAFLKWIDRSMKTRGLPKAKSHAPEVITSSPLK
- Sequence (P00742 41-179 partner): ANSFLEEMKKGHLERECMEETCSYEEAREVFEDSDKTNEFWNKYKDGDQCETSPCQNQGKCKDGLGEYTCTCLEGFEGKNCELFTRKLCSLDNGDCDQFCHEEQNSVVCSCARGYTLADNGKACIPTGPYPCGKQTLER
- EXPERIMENT: Dose response assay for protease inhibitors: Factor Xa
- Format: biochemical
- TEST_SETTINGS: selectivity, Factor Xa over Factor XIa
- Excerpt: […]
OBSERVABLE: Ratio: FXa/FXIa

CC[C@@H](NC(=O)N1C(=O)[C@H](Cc2cc(C)nc(N)c2)[C@H]1C(=O)N(C)c1ccnn1C)c1ccc(F)c(F)c1 I (“I” indicates > 500)
CC[C@@H](NC(=O)N1C(=O)[C@H](Cc2ccnc(N)c2)[C@H]1C(=O)N(C)c1ccnn1C)c1cccc(Cl)c1 I (“I” indicates > 500)
CC[C@@H](NC(=O)N1C(=O)[C@H](Cc2ccnc(N)c2)[C@H]1C(=O)N(C)c1nccn1C)c1ccc(F)cc1 I (“I” indicates > 500)

----------
- EXPERIMENTAL_TARGET: Thrombin (Homo sapiens (Human))
- EXPERIMENT: Dose response assay for protease inhibitors: thrombin
- Format: biochemical
- TEST_SETTINGS: selectivity, thrombin over Factor XIa
OBSERVABLE: Ratio: Thrombin/FXIa

CC[C@@H](NC(=O)N1C(=O)[C@H](Cc2cc(C)nc(N)c2)[C@H]1C(=O)N(C)c1cnn(C)c1)c1cccc(Cl)c1 G (“G” indicates 1-100)
CC[C@@H](NC(=O)N1C(=O)[C@H](Cc2ccnc(N)c2)[C@H]1C(=O)N(C)c1cnsc1)c1ccccc1 G (“G” indicates 1-100)

----------
pIC50: −log10 of the molar value.
Recorded below: pIC50, system Factor XIa (Homo sapiens (Human)).

CC[C@@H](NC(=O)N1C(=O)[C@H](Cc2ccnc(NC)c2)[C@H]1C(=O)N(C)c1nccn1C)c1cccc(Cl)c1 7.00 to 8.00
CC[C@@H](NC(=O)N1C(=O)[C@H](Cc2ccnc(N)c2)[C@H]1C(=O)N(C)c1cnn(C)c1)c1cccc(Cl)c1 > 8.00
CC[C@@H](NC(=O)N1C(=O)[C@H](Cc2ccnc(N)c2)[C@H]1C(=O)N(C)c1cscn1)c1cccc(Cl)c1 > 8.00
CC[C@@H](NC(=O)N1C(=O)[C@H](Cc2ccnc(N)c2)[C@H]1C(=O)N(C)c1nccn1C)c1ccc(C)cc1F > 8.00
CC[C@@H](NC(=O)N1C(=O)[C@H](Cc2ccnc(N)c2)[C@H]1C(=O)N(C)c1nccn1C)c1ccc(C)c(C)c1 > 8.00
CC[C@@H](NC(=O)N1C(=O)[C@H](Cc2cc(C)nc(N)c2)[C@H]1C(=O)N(C)c1ccnn1C)c1cccc(F)c1C > 8.00

**Query** Look up and report pIC50, with Factor XIa (Homo sapiens (Human)) as system, for CC[C@@H](NC(=O)N1C(=O)[C@H](Cc2ccnc(N)c2)[C@H]1C(=O)N(C)c1ccn(C)n1)c1ccccc1
Sequence (P03951 388-625): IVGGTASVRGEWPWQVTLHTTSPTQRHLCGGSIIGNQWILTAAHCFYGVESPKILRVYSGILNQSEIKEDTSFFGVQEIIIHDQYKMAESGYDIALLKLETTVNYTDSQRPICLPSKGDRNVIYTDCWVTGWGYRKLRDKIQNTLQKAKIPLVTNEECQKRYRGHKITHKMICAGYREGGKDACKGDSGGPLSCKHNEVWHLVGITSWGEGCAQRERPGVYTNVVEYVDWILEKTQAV
Sequence (P03951 19-387 partner): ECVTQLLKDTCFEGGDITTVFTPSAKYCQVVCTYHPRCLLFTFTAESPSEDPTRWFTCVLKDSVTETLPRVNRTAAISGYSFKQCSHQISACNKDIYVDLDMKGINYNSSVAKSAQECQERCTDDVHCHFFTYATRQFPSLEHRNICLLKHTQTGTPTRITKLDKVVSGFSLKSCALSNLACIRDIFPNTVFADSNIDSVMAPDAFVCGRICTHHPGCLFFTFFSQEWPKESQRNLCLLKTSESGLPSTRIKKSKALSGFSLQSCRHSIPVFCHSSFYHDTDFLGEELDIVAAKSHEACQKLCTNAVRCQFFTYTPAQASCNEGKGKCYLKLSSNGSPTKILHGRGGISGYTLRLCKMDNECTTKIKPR
**Result** > 8.00

**Query** Look up and report pIC50, with Factor XIa (Homo sapiens (Human)) as system, for CC[C@@H](NC(=O)N1C(=O)[C@H](Cc2ccnc(NC)c2)[C@H]1C(=O)N(C)c1cccs1)c1ccccc1
**Result** 7.00 to 8.00

**Query** Look up and report pIC50, with Factor XIa (Homo sapiens (Human)) as system, for CC[C@@H](NC(=O)N1C(=O)[C@H](Cc2cc(C)nc(N)c2)[C@H]1C(=O)N(C)c1nccn1C)c1ccccc1
**Result** > 8.00

**Query** Look up and report pIC50, with Factor XIa (Homo sapiens (Human)) as system, for CC[C@@H](NC(=O)N1C(=O)[C@H](Cc2cc(C)nc(N)c2)[C@H]1C(=O)N(C)c1ccnn1C)c1ccc(C)c(F)c1
**Result** > 8.00

**Query** Look up and report pIC50, with Factor XIa (Homo sapiens (Human)) as system, for CC[C@@H](NC(=O)N1C(=O)[C@H](Cc2ccnc(N)c2)[C@H]1C(=O)N(C)c1nccn1C)c1ccc(C)c(F)c1C
**Result** > 8.00

**Query** Look up and report pIC50, with Factor XIa (Homo sapiens (Human)) as system, for CCNc1cc(C[C@H]2C(=O)N(C(=O)N[C@H](CC)c3cccc(Cl)c3)[C@@H]2C(=O)N(C)c2ccn(C)n2)ccn1
**Result** 7.00 to 8.00

**Query** Look up and report pIC50, with Factor XIa (Homo sapiens (Human)) as system, for CC[C@@H](NC(=O)N1C(=O)[C@H](Cc2ccnc(N)c2)[C@H]1C(=O)N(C)c1nccn1C)c1ccc(F)c(F)c1F
**Result** > 8.00

**Query** Look up and report pIC50, with Factor XIa (Homo sapiens (Human)) as system, for CC[C@@H](NC(=O)N1C(=O)[C@H](Cc2cc(C)nc(N)c2)[C@H]1C(=O)N(C)c1nnco1)c1ccccc1
**Result** > 8.00

**Query** Look up and report pIC50, with Factor XIa (Homo sapiens (Human)) as system, for CC[C@@H](NC(=O)N1C(=O)[C@H](Cc2ccnc(N)c2)[C@H]1C(=O)N(C)c1ccsn1)c1ccccc1
**Result** 7.00 to 8.00

**Query** Look up and report pIC50, with Factor XIa (Homo sapiens (Human)) as system, for CC[C@@H](NC(=O)N1C(=O)[C@H](Cc2ccnc(N)c2)[C@H]1C(=O)N(C)c1ccn(C)n1)c1ccsc1
**Result** 7.00 to 8.00

**Query** Look up and report pIC50, with Factor XIa (Homo sapiens (Human)) as system, for CC[C@@H](NC(=O)N1C(=O)[C@H](Cc2ccnc(N)c2)[C@H]1C(=O)N(C)c1cscn1)c1cccc(C)c1
**Result** > 8.00

**Query** Look up and report pIC50, with Factor XIa (Homo sapiens (Human)) as system, for CC[C@@H](NC(=O)N1C(=O)[C@H](Cc2ccnc(N)c2)[C@H]1C(=O)N(C)c1ccn(C)n1)c1ccc(C)c(F)c1
**Result** > 8.00

**Query** Look up and report pIC50, with Factor XIa (Homo sapiens (Human)) as system, for CC[C@@H](NC(=O)N1C(=O)[C@H](Cc2ccnc(N)c2)[C@H]1C(=O)N(C)c1cn(C)cn1)c1cccc(Cl)c1
**Result** > 8.00

**Query** Look up and report pIC50, with Factor XIa (Homo sapiens (Human)) as system, for CC[C@@H](NC(=O)N1C(=O)[C@H](Cc2cc(C)nc(N)c2)[C@H]1C(=O)N(C)c1ccnn1C)c1ccc(C)cc1
**Result** > 8.00

**Query** Look up and report pIC50, with Factor XIa (Homo sapiens (Human)) as system, for CC[C@@H](NC(=O)N1C(=O)[C@H](Cc2ccnc(N)c2)[C@H]1C(=O)N(C)c1ccnn1C)c1ccc(F)c(C)c1
**Result** > 8.00

**Query** Look up and report pIC50, with Factor XIa (Homo sapiens (Human)) as system, for CC[C@@H](NC(=O)N1C(=O)[C@H](Cc2ccnc(N)c2)[C@H]1C(=O)N(C)c1ccnn1C)c1cc(C)c(F)c(C)c1
**Result** > 8.00

**Query** Look up and report pIC50, with Factor XIa (Homo sapiens (Human)) as system, for CC[C@@H](NC(=O)N1C(=O)[C@H](Cc2cc(C)nc(N)c2)[C@H]1C(=O)N(C)c1cnn(C)c1)c1ccc(C)c(C)c1
**Result** > 8.00
